Catalogue of sequences with associated gcPBM binding intensity (ln)
Tested on: PfAP2-I AP2 domain 3 (GST-tagged)
assayProcedure: gcPBM binding intensity (ln(normalized median fluorescence intensity)); higher = stronger DNA binding
In all, about 25,000 sequences were measured (“ln(normalized median fluorescence intensity)”: median about 7.9, highest 2% from about 11 on). Many of the other results were omitted from the sample, so the highest values are more common in it than they were.
Please respond with just the number, no unit label.

Example entries begin here.
sequenceInput | gcPBM binding intensity (ln)
TAAATTAATACCTATGCACACATTTTTTTTTTTAAA [CACACA_site1238] | 8.32
TATCATTTTTTTAAAACACACATAATAATATAAATA [CACACA_site2845] | 7.82
AAATTTAATTTTATATCACACATTAAATTTTAATGG [CACACA_site4251] | 7.65
ATTTGATAGACACATGCACACATGCAATACTTTATT [CACACA_site5633] | 8.81
TAATATATTATAAACACATGCACATTAATAATAACT [TGCATGCA_site708] | 8.08

What value of gcPBM binding intensity (ln) has been reported for the following sequence? TTTAATTTGATAGACACATGCACACGTGCAATACTT [TGCATGCA_site777]
10.9

Form field: reported gcPBM binding intensity (ln) of AATGCTATCATTAATGCACACATTTAAACTTAATAT [CACACA_site5878]
11

// query gcPBM binding intensity (ln) value for entry AATGCTATCATTAATGCACACATTTAAAATTAATAT [CACACA_site3548]
11

# input sequence: AATATATTTTTATATTGTACAAAAGAAAAAAAATAT [XGTACX_site1689] ; wanted: its gcPBM binding intensity (ln)
8.05

----------
Test system: PfAP2-I AP2 domain 3 (GST-tagged)
assayProcedure: gcPBM binding intensity (ln(normalized median fluorescence intensity)); higher = stronger DNA binding
Over roughly 25,000 sequences, “ln(normalized median fluorescence intensity)” has its median near 7.9; the highest 2% begin near 11. For the sample, the highest values were picked, then their nearest neighbours and some sequences at random.
Measured gcPBM binding intensity (ln) accompanies every entry in the list below.
Kindly provide the number alone.

Some sequences with recorded gcPBM binding intensity (ln):
sequenceInput | measured
AAAATAAACTATAGTACACACTTATTATTATGAAAT [CACACA_site5488] | 7.92
TTTTTGTTATTTTTAGTGCACATTTAAGGGTGTATT | 11.4
CTTAATAAGAATAAATGTACAAGGGATAAAAAATTT [XGTACX_site3213] | 8.02
TGTGCACATAATTAGTGTACATTTTTTATTTAGACA [XGTACX_site317] | 10.3
AAATTTGGCAAACACACACACACACCCACAGAGACA [CACACA_site4490] | 8.3

Query: gcPBM binding intensity (ln); subject: TTGAAAAATGAGCACACACACAAATACATACATATT [CACACA_site3231]
7.97

Fill in the blank: the reported gcPBM binding intensity (ln) of GAAAATATTATAGCACCACACACTTATTTTATATAT [CACACA_site2265] is ____.
10.5

Requested read-out: gcPBM binding intensity (ln). Entry: ACGGAAAAAGAAAAGGTGCATATGGACACAATATAT
10.8

I am curious: what gcPBM binding intensity (ln) value has been reported for TTTCTTCGAAATAGAACACTTGTGCAAAATAAGCAA [XGTACX_negctrl_site361] ?
9.9

Entry GGAAGCTAATTACACACATGCATATTTTTTTTTCAA [TGCATGCA_site548] : reported gcPBM binding intensity (ln) = ?
8.16

Dear colleague, I am looking for the recorded gcPBM binding intensity (ln) of the following sequence: TAAAAGAAATAAGGTGCACACATATACATATATATA [CACACA_site8037]
10.2

----------
Test system: PfAP2-I AP2 domain 3 (GST-tagged)
assayProcedure: gcPBM binding intensity (ln(normalized median fluorescence intensity)); higher = stronger DNA binding
The full ranking holds about 25,000 sequences; the median of “ln(normalized median fluorescence intensity)” is about 7.9, and the highest 2% start at about 11. The list comes from a sample in which the highest values are over-represented; it also holds close analogues and randomly drawn sequences.
Parameter threshold = 8. Response is MET when gcPBM binding intensity (ln) meets or exceeds it, else NOT MET.

Item TAGCTTATTAATATCATACACACATAGATATATTTA [CACACA_site3105] with gcPBM binding intensity (ln) of 8 or above?
NOT MET

// inclusive: gcPBM binding intensity (ln) at least 8? input: TAAAAAATAAAATACACACACATATATATATATATA [CACACA_site1323]
MET

Exam item: decide whether the reported gcPBM binding intensity (ln) for ATATATATATATTTCGTGCACTGATAATATTATTTT is at least 8.
MET

Dear colleague, could you confirm whether TTATATTATTCGTGTGTGCACGATATTTCATAATTG [GTGCAC_site9767] has gcPBM binding intensity (ln) at or above 8?
MET

Reported gcPBM binding intensity (ln) reaches at least 8 for TTTATTTGTAACGGTTGTACTTGTATATCATTATGA [XGTACX_site4281] ?
NOT MET

gcPBM binding intensity (ln) >= 8 for TATAAAAAAAAAAAATATATATATATATAAATATAA [TGCATGCA_negctrl_site367] ?
NOT MET

Record TAATGCAACATTTATGTGCACATAAATATTTTTTAA ; criterion: gcPBM binding intensity (ln) no lower than 8. Met?
MET

Please check the record TTTGCGTAGAAATGTGTGCACTGATATTTATAATAA [GTGCAC_site9526] and state if its gcPBM binding intensity (ln) is at or above 8.
MET

----------
Tested on: PfAP2-I AP2 domain 3 (GST-tagged)
assayProcedure: gcPBM binding intensity (ln(normalized median fluorescence intensity)); higher = stronger DNA binding
Over roughly 25,000 sequences, “ln(normalized median fluorescence intensity)” has its median near 7.9; the highest 2% begin near 11. For the sample, the highest values were picked, then their nearest neighbours and some sequences at random.
measuredMetric: gcPBM binding intensity (ln)
Answer with a bare number; do not write a unit.

Below, each entry is followed by its recorded gcPBM binding intensity (ln) result.
sequenceInput | measuredMetric | measured
CATATTCCCCCCCACACACACACACGCATACATACC [CACACA_site7148] | gcPBM binding intensity (ln) | 10.8
TTTTTTAAAAGATAATATTTTATTAATGTATTCTCA [GTGCAC_negctrl_site598] | gcPBM binding intensity (ln) | 7.2
AAAAAAATTAAATCAAGTACTCATTCTTAAATTATA [XGTACX_site1274] | gcPBM binding intensity (ln) | 7.32
TAAAATAATATTTATGTGCACATATAATTATTAATT | gcPBM binding intensity (ln) | 10.4

Query: gcPBM binding intensity (ln); subject: ATAAATAAAAATACATGAACAGGTCAGGTTATTTTT [CACACA_negctrl_site1007]
7.29

----------
Tested on: PfAP2-I AP2 domain 3 (GST-tagged)
assayProcedure: gcPBM binding intensity (ln(normalized median fluorescence intensity)); higher = stronger DNA binding
The full ranking holds about 25,000 sequences; the median of “ln(normalized median fluorescence intensity)” is about 7.9, and the highest 2% start at about 11. For the sample, the highest values were picked, then their nearest neighbours and some sequences at random.
# binarize gcPBM binding intensity (ln): threshold 9 inclusive, high side Met, low side Not met

sequenceInput | classification
TTTATAGTTTTTAATAGTACACATATTTTTAAGTAT [XGTACX_site5498] | Not met
AGTAATAGTTTGTGCACACTCAAGTATATCATATAT [CACACA_site4034] | Met
AGTAATAGTTTGTGCACACTCAAGTATATCATAGAT [CACACA_site6082] | Met

Consider the additional sequence presented here.
Threshold query (gcPBM binding intensity (ln) >= 9) on TTGTTTTGGATTATCACACATATAATATATACTCAT [CACACA_site4780]
Not met

----------
Test system: PfAP2-I AP2 domain 3 (GST-tagged)
assayProcedure: gcPBM binding intensity (ln(normalized median fluorescence intensity)); higher = stronger DNA binding
In all, about 25,000 sequences were measured (“ln(normalized median fluorescence intensity)”: median about 7.9, highest 2% from about 11 on). The entries come from a sample that favours the highest values as a whole.
Is gcPBM binding intensity (ln) at least 10? Then Met. If not, Not met.

See these solved cases before continuing.
sequenceInput | classification
ATAAATATTATTTTACGTACATATTTATGAAGTATT [XGTACX_site8746] | Not met
CATTTTATAAAAAGCACACATATAGTTATATGCACA [CACACA_site3691] | Met
AAACACACACACAAATGTACATATATATATATATTT [XGTACX_site5090] | Not met

Hello, I need to know if TTTTGTACAAAAATAATGCACACTATATCAAGTTTT [CACACA_site3595] has measured gcPBM binding intensity (ln) not below 10. Thanks!
Met

Decide: gcPBM binding intensity (ln) of GAAAATAAAATATTAGTGCATTATTTGATCAATAAT >= 10?
Met

Please indicate if the recorded gcPBM binding intensity (ln) for TTAATATATTATCTGGTGCATAAACACGTTATACCT meets or exceeds 10.
Met

hey, is gcPBM binding intensity (ln) for this one >= 10? TATTAACAAATTTATGTGCACTGAGGACAAATATAT
Met

Would you say ATTTAATATCACAATATATTTTTTACCCTTATCAGC [CACACA_negctrl_site491] shows gcPBM binding intensity (ln) at minimum 10?
Not met

Hi, just wondering whether TTGTACAAAAATAATGCACACTATATCAAGTTTTTT [CACACA_site5898] shows gcPBM binding intensity (ln) of 10 or higher.
Met

Determine whether this sequence has gcPBM binding intensity (ln) no lower than 10: TTTTATTGTTTTTTTTTTTTTTCTTTTTTTTTTTTT [CACACA_negctrl_site1094]
Not met

Does the sequence GCACATATGAATATAATACACACTTGTATTATTAAT [CACACA_site1841] have recorded gcPBM binding intensity (ln) that is 10 or more?
Not met

Could you please find out whether AATCAATTAATATTAGCATAAAATTTTATTATTTTG [XGTACX_negctrl_site479] has gcPBM binding intensity (ln) that meets 10 or exceeds it?
Not met

Is the recorded value of gcPBM binding intensity (ln) equal to or greater than 10 for this sequence? CAAAATATTTTTATAACACACATATATATAATGTGC [CACACA_site4767]
Not met

Is gcPBM binding intensity (ln) for GCTTATATTAATAAGGTGCTTTTTATTTCGTGTGTA [GTGCAC_site9649] at or above 10?
Not met

Quick check, gcPBM binding intensity (ln) >= 10? TGGTTATTTATCTTTATTATAAATATTTACAAATAA [CACACA_negctrl_site1773]
Not met

Hi team, for CATGAATATTTTAATGTGCACATTTATCATTATATG , is the recorded gcPBM binding intensity (ln) at or above 10?
Not met

Tell me whether gcPBM binding intensity (ln) is at least 10 here: TTAATTATGGACAGGGTGCACATGAATAATAATACC
Met

State whether the measured gcPBM binding intensity (ln) reaches 10, counting equality as reaching it, for TTTAATTATTAAATGGTGCACTTGAAATATAAAAAT
Met

Form field: gcPBM binding intensity (ln) at least 10? Entry: ATTATTAATAATTGTGTGCACAAATATTTATATGCT
Met

Is it the case that AGTATTATATTTGTATGTACGTAGTAATATATAAAA [XGTACX_site528] has gcPBM binding intensity (ln) reaching or exceeding 10?
Not met

I'd appreciate it if you could say whether AATAAAGAAGAAGAAAGTACACATTTCACAAAGGGG [XGTACX_site1308] has gcPBM binding intensity (ln) at least equal to 10.
Not met

Provenance of the data: the supplement of paper PMC11417369
